Can you tell me inhibition of SARS-CoV-2 cytopathic effect for the items I'm about to list?
Tested on: Vero E6 infected with SARS-CoV-2
Test: inhibition of SARS-CoV-2 cytopathic effect; higher = more antiviral protection, active = above 15
Settings: 10000 nM; 48 h
Numbers only here, please. The scale is %.

Exam item: Supply reported inhibition of SARS-CoV-2 cytopathic effect belonging to this compound: O=C1[C@@H]2[C@H]3CC[C@H](C3)[C@@H]2C(=O)N1CCCCN1CCN(c2ncccn2)CC1
Marked response: 0.15

Exam item: Supply reported inhibition of SARS-CoV-2 cytopathic effect belonging to this compound: Cc1ccc(NC(=O)c2ccc(CN3CCN(C)CC3)cc2)cc1Nc1nccc(-c2cccnc2)n1
Marked response: 20.1

Exam item: Supply reported inhibition of SARS-CoV-2 cytopathic effect belonging to this compound: CCCN[C@@H]1CCc2c(OC)cccc2[C@@H]1C
Marked response: -3.49

Exam item: Supply reported inhibition of SARS-CoV-2 cytopathic effect belonging to this compound: CCOC(=O)[N-]c1c[n+](N2CCOCC2)no1
Marked response: -0.19

Exam item: Supply reported inhibition of SARS-CoV-2 cytopathic effect belonging to this compound: Clc1ccc(N/N=C(\c2ccccc2)c2ccccn2)nc1
Marked response: 16.5

Exam item: Supply reported inhibition of SARS-CoV-2 cytopathic effect belonging to this compound: CCC(C)(C)c1ccc(CC(C)CN2C[C@@H](C)O[C@@H](C)C2)cc1 (some centres not stated)
Marked response: 1.19

Exam item: Supply reported inhibition of SARS-CoV-2 cytopathic effect belonging to this compound: NCCC[C@H](N)C(=O)O
Marked response: 2.35

Exam item: Supply reported inhibition of SARS-CoV-2 cytopathic effect belonging to this compound: O=C(O)c1ccccc1O
Marked response: 1.57

Exam item: Supply reported inhibition of SARS-CoV-2 cytopathic effect belonging to this compound: Oc1cc(O)c(Cl)cn1
Marked response: 1.36

Exam item: Supply reported inhibition of SARS-CoV-2 cytopathic effect belonging to this compound: CN1C(C(=O)Nc2ccccn2)=C(O)c2ccccc2S1(=O)=O
Marked response: 1.41

Exam item: Supply reported inhibition of SARS-CoV-2 cytopathic effect belonging to this compound: Nc1ccc(-c2ccc3ncc4ccc(=O)n(-c5cccc(C(F)(F)F)c5)c4c3c2)cn1
Marked response: -8.11

Exam item: Supply reported inhibition of SARS-CoV-2 cytopathic effect belonging to this compound: CC[C@@H](CO)NC(=O)[C@@H]1C=C2c3cccc4c3c(cn4C)C[C@H]2N(C)C1 [methysergide]
Marked response: 0.92

Exam item: Supply reported inhibition of SARS-CoV-2 cytopathic effect belonging to this compound: O=C(OCCN1CCCCC1)c1c[nH]c2ccccc12
Marked response: -6.53

Exam item: Supply reported inhibition of SARS-CoV-2 cytopathic effect belonging to this compound: O=C1Nc2ccccc2C2(CCN(CCc3ccc(C(F)(F)F)cc3)CC2)O1
Marked response: -3.73

Exam item: Supply reported inhibition of SARS-CoV-2 cytopathic effect belonging to this compound: O=C(C(c1ccccc1)c1ccccc1)N1CCN(CC(O)COc2cccc3ncccc23)CC1 (configuration not stated)
Marked response: 1.44

Exam item: Supply reported inhibition of SARS-CoV-2 cytopathic effect belonging to this compound: COc1ccc2c(Oc3ccc(NC(=O)c4c(C)n(CC(C)(C)O)n(-c5ccccc5)c4=O)nc3)ccnc2c1
Marked response: -0.65

Exam item: Supply reported inhibition of SARS-CoV-2 cytopathic effect belonging to this compound: CN(C)CCN(Cc1ccccc1)c1ccccn1
Marked response: -1.94

Exam item: Supply reported inhibition of SARS-CoV-2 cytopathic effect belonging to this compound: Oc1cc2c(cc1O)CN(C(=S)NCCc1ccc(Cl)cc1)CCC2 [capsazepine]
Marked response: 3.42

Exam item: Supply reported inhibition of SARS-CoV-2 cytopathic effect belonging to this compound: CC1=C(/C=C/C(C)=C/C=C/C(C)=C/C(=O)Nc2ccc(O)cc2)C(C)(C)CCC1 [fenretinide]
Marked response: 2.45

Exam item: Supply reported inhibition of SARS-CoV-2 cytopathic effect belonging to this compound: COc1cc2c(cc1OC)-c1c/c(=N\c3c(C)cc(C)cc3C)n(C)c(=O)n1CC2
Marked response: 6.34

Exam item: Supply reported inhibition of SARS-CoV-2 cytopathic effect belonging to this compound: Fc1cc(-c2cccc3ncc(-c4cnn(C5CCNCC5)c4)nc23)cc(F)c1CN1CCOCC1
Marked response: 63.3

Exam item: Supply reported inhibition of SARS-CoV-2 cytopathic effect belonging to this compound: CCOc1cc(C(=O)N2CCC(N3CCN(C)CC3)CC2)ccc1Nc1ncc2c(n1)N(C1CCCC1)c1ccccc1C(=O)N2C
Marked response: -0.04

Exam item: Supply reported inhibition of SARS-CoV-2 cytopathic effect belonging to this compound: CCCCc1nc(C)c(CC(=S)N(C)C)c(=O)n1Cc1ccc(-c2ccccc2-c2nnn[nH]2)cc1
Marked response: -0.45

Exam item: Supply reported inhibition of SARS-CoV-2 cytopathic effect belonging to this compound: N[C@@H]1CN(c2c(F)cc3c(=O)c(C(=O)O)cn([C@@H]4C[C@@H]4F)c3c2Cl)CC12CC2
Marked response: 5.19

Exam item: Supply reported inhibition of SARS-CoV-2 cytopathic effect belonging to this compound: Nc1cc(F)ccc1NC(=O)/C=C/c1cnn(C/C=C/c2ccccc2)c1
Marked response: -1.9

Exam item: Supply reported inhibition of SARS-CoV-2 cytopathic effect belonging to this compound: CCn1cc(C(=O)O)c(=O)c2cc(F)c(N3CCNCC3)nc21
Marked response: 0.56

Exam item: Supply reported inhibition of SARS-CoV-2 cytopathic effect belonging to this compound: O=C(CN1CCNCC1)NC1CCCCC1
Marked response: -1.46

Exam item: Supply reported inhibition of SARS-CoV-2 cytopathic effect belonging to this compound: CC(C)Cn1cnc2c1c(=O)n(C)c(=O)n2C
Marked response: 1.65

Exam item: Supply reported inhibition of SARS-CoV-2 cytopathic effect belonging to this compound: O=C1O[C@H]([C@@H](O)CO)C(O)=C1O
Marked response: -1.51

Exam item: Supply reported inhibition of SARS-CoV-2 cytopathic effect belonging to this compound: CCCC(=O)O [sodium-butyrate]
Marked response: 0.24

Exam item: Supply reported inhibition of SARS-CoV-2 cytopathic effect belonging to this compound: CCN1CCC(n2cc(CNc3cc(Cl)c4ncc(C#N)c(Nc5ccc(F)c(Cl)c5)c4c3)nn2)CC1
Marked response: 14

Exam item: Supply reported inhibition of SARS-CoV-2 cytopathic effect belonging to this compound: CC1(C)CCC(C)(C)c2cc(C(=O)Nc3ccc(C(=O)O)cc3)ccc21
Marked response: 3.21

Exam item: Supply reported inhibition of SARS-CoV-2 cytopathic effect belonging to this compound: O=C(O)CNC(=O)C1C(=O)N(C2CCCCC2)C(=O)N(C2CCCCC2)C1=O
Marked response: -0.29

Exam item: Supply reported inhibition of SARS-CoV-2 cytopathic effect belonging to this compound: COc1ccc(NS(=O)(=O)c2ccc(I)cc2)cc1N1CCN(C)CC1
Marked response: -1.3

Exam item: Supply reported inhibition of SARS-CoV-2 cytopathic effect belonging to this compound: CNC(=O)c1cccc2cc(Oc3ccnc4cc(OCC5(N)CC5)c(OC)cc34)ccc12
Marked response: 2.58

Exam item: Supply reported inhibition of SARS-CoV-2 cytopathic effect belonging to this compound: Cn1c(=O)[nH]c2ncn(C)c2c1=O
Marked response: -0.26

Exam item: Supply reported inhibition of SARS-CoV-2 cytopathic effect belonging to this compound: Cc1c(N)nc([C@H](CC(N)=O)NC[C@H](N)C(N)=O)nc1C(=O)N[C@H](C(=O)N[C@H](C)[C@@H](O)[C@H](C)C(=O)N[C@H](C(=O)NCCc1nc(-c2nc(C(=O)NCCC[S+](C)C)cs2)cs1)[C@@H](C)O)[C@@H](OC1OC(CO)C(O)C(O)C1OC1OC(CO)C(O)C(OC(N)=O)C1O)c1cnc[nH]1 (some centres not stated)
Marked response: -21.5

The values you see were collected from the supplement of paper PMC13380429.
